target: Cytochrome P450 2C9 (Homo sapiens); assay: qHTS Assay for Inhibitors and Substrates of Cytochrome P450 2C9 (AID 883); details: recombinant CYP2C9, luciferin-H luminescence, 60 min; series mostly up to 11.4 µM; also: nearly all actives have a fitted effect of over 60% in size
Records with an inconclusive call do not appear. Activity calls are given as the source filed them. Calls follow the shape of the dose curve; as a rule, active = well fitted inhibition curve with a large enough effect; inconclusive = small, poorly fitted or top-dose-only effect; inactive = no such curve, though single readings can be large or run the other way.
Form entry, call: pick from Yes for active, No for inactive

Observe how each entry below is paired with its result.
compound	group.label
COc1ccc(OCC2Cc3c(-c4ccccc4)nc4c(c3CO2)CN(CCOc2ccccc2)CC4)cc1 (centres undefined)	No
COC(=O)CC1=COC(O)C2C(CO)=CC[C@@H]12 (some centres undefined)	No
CC(=O)OCC1OC(C#CC2=CCCCC2)C=CC1OC(C)=O (centres undefined)	No
COc1ccc(OC2C=CC(C#Cc3ccc(Br)cc3)OC2CO)c(C(C)(C)C)c1 (centres undefined)	Yes
CC1CCC2C(=O)N3C(CCC(C)[C@@H]3c3cccc(N4CCOCC4)c3)C(=O)N2C1c1cccc(Br)c1 (some centres undefined)	Yes

Short answer needed: outcome of this test for O=Cc1ccc(OC2C=CC(C#Cc3ccccc3)OC2CO)cc1 (centres undefined) ? Yes

Short answer needed: outcome of this test for COC(=O)NC(c1ccc2ccccc2c1)C(C(C)=O)C(=O)OC (centres undefined) ? No

Short answer needed: outcome of this test for CC12C=C(/C=C/c3ccc(Br)cc3)C(C)(C1)C(c1ccc(Br)cc1)CC2=O (centres undefined) ? Yes
